RUN_DESCRIPTION: total protein half-life in vivo (active degradation + dilution); higher = more stable protein
MEASUREMENT_PARAMETERS: wild type E. coli NCM3722; growth: P-lim chemostat; doubling time 12 h
VALUE_TYPE: total protein half-life in vivo (h)
Numbers only, in h.

[
  {
    "SEQUENCE_STRING": "MITIRDVARQAGVSVATVSRVLNNSTLVSADTREAVMKAVSELDYRPNANAQALATQVSDTIGVVVMDVSDAFFGALVKAVDLVAQQHQKYVLIGNSYHEAEKERHAIEVLIRQRCNALIVHSKALSDDELAQFMDNIPGMVLINRVVPGYAHRCVCLDNLSGARMATRMLLNNGHQRIGYLSSSHGIEDDAMRKAGWMSALKEQDIIPPESWIGAGTPDMPGGEAAMVELLGRNLQLTAVFAYNDNMAAGALTALKDNGIAIPLHLSIIGFDDIPIARYTDPQLTTVRYPIASMAKLATELALQGAAGNIDPRASHCFMPTLVRRHSVATRQNAAAITNSTNQAM",
    "VALUE_TYPE": "total protein half-life in vivo",
    "TEST_RESULT": 10.9
  },
  {
    "SEQUENCE_STRING": "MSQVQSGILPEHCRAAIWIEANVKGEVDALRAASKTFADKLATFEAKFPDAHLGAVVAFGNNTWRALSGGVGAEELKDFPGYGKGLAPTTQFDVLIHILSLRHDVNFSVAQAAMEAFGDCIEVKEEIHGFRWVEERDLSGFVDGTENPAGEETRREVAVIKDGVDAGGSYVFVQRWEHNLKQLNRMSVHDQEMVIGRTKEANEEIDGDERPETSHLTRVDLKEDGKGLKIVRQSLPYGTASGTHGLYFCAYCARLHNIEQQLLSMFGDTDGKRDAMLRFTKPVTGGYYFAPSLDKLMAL",
    "VALUE_TYPE": "total protein half-life in vivo",
    "TEST_RESULT": 9.66
  },
  {
    "SEQUENCE_STRING": "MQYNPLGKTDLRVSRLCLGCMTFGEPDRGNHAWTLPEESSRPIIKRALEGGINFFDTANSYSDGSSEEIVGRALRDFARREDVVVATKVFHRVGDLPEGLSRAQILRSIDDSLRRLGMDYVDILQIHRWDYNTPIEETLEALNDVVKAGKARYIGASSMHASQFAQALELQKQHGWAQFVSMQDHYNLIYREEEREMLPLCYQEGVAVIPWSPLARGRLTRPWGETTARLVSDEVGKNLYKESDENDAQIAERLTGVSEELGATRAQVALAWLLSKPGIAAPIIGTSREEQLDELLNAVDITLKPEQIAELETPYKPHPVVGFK",
    "VALUE_TYPE": "total protein half-life in vivo",
    "TEST_RESULT": 8.83
  },
  {
    "SEQUENCE_STRING": "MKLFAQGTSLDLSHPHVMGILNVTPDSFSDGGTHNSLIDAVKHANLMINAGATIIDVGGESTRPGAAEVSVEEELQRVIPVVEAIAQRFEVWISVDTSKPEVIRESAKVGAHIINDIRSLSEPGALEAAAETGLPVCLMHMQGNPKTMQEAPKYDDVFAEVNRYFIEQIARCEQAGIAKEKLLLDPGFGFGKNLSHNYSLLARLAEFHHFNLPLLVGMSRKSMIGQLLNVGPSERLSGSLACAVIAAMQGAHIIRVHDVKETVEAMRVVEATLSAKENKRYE [P0AC13]",
    "VALUE_TYPE": "total protein half-life in vivo",
    "TEST_RESULT": 11.3
  },
  {
    "SEQUENCE_STRING": "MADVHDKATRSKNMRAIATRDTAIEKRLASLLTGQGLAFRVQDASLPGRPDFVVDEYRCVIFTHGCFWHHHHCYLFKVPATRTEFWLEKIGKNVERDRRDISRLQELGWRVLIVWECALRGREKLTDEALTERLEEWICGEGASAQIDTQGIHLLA",
    "VALUE_TYPE": "total protein half-life in vivo",
    "TEST_RESULT": 9.27
  },
  {
    "SEQUENCE_STRING": "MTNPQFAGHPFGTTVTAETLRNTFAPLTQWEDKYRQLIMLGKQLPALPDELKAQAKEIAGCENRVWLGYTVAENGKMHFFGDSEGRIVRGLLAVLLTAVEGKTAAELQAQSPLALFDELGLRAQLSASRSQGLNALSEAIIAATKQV [P0AGF2]",
    "VALUE_TYPE": "total protein half-life in vivo",
    "TEST_RESULT": 11.1
  },
  {
    "SEQUENCE_STRING": "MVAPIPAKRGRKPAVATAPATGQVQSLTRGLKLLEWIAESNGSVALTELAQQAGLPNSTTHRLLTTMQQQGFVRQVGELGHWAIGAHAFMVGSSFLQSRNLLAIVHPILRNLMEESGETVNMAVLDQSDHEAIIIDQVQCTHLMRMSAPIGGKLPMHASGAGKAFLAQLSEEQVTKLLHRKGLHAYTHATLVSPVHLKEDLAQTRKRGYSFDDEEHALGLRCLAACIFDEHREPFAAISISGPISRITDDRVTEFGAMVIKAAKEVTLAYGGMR",
    "VALUE_TYPE": "total protein half-life in vivo",
    "TEST_RESULT": 9.56
  },
  {
    "SEQUENCE_STRING": "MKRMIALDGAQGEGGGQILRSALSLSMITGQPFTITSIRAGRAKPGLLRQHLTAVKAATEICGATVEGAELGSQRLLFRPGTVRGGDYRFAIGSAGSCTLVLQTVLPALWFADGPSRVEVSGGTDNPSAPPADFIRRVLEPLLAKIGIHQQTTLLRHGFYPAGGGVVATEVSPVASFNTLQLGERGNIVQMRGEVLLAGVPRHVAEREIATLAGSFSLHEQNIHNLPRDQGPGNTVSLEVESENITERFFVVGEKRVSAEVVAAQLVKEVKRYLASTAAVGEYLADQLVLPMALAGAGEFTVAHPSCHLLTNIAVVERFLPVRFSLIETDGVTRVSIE",
    "VALUE_TYPE": "total protein half-life in vivo",
    "TEST_RESULT": 10.9
  }
]

Batch lookup, total protein half-life in vivo per entry.
1. MAFKIWQIGLHLQQQEAVAVAIVRGAKECFLQRWWRLPLENDIIKDGRIVDAQQLAKTLLPWSRELPQRHHIMLAFPASRTLQRSFPRPSMSLGEREQTAWLSGTMARELDMDPDSLRFDYSEDSLSPAYNVTAAQSKELATLLTLAERLRVHVSAITPDASALQRFLPFLPSHQQCLAWRDNEQWLWATRYSWGRKLAVGMTSAKELAAALSVDPESVAICGEGGFDPWEAVSVRQPPLPPPGGDFAIALGLALGKAY
2. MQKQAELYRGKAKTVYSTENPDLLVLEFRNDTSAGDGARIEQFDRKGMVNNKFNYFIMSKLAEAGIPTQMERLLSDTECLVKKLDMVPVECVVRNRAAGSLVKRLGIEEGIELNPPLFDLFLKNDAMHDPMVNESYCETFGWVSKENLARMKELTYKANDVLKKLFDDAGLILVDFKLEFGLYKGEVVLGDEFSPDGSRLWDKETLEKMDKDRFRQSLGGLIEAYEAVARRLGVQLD [P0A7D7]
3. MSLPMLQVALDNQTMDSAYETTRLIAEEVDIIEVGTILCVGEGVRAVRDLKALYPHKIVLADAKIADAGKILSRMCFEANADWVTVICCADINTAKGALDVAKEFNGDVQIELTGYWTWEQAQQWRDAGIGQVVYHRSRDAQAAGVAWGEADITAIKRLSDMGFKVTVTGGLALEDLPLFKGIPIHVFIAGRSIRDAASPVEAARQFKRSIAELWG

1. 8.02
2. 11.8
3. 3.39

* * *

RUN_DESCRIPTION: total protein half-life in vivo (active degradation + dilution); higher = more stable protein
MEASUREMENT_PARAMETERS: wild type E. coli NCM3722; growth: C-lim chemostat; doubling time 3 h
Give measured total protein half-life in vivo for each item. Keep answers brief.
Reply with the number and its unit after it.

Sample answers from the record:
[
  {
    "SEQUENCE_STRING": "MSEYRRYYIKGGTWFFTVNLRNRRSQLLTTQYQMLRHAIIKVKRDRPFEINAWVVLPEHMHCIWTLPEGDDDFSSRWREIKKQFTHACGLKNIWQPRFWEHAIRNTKDYRHHVDYIYINPVKHGWVKQVSDWPFSTFHRDVARGLYPIDWAGDVTDFSAGERIIS",
    "total protein half-life in vivo": "1.93 h"
  },
  {
    "SEQUENCE_STRING": "MSKVCIIAWVYGRVQGVGFRYTTQYEAKRLGLTGYAKNLDDGSVEVVACGEEGQVEKLMQWLKSGGPRSARVERVLSEPHHPSGELTDFRIR [P0AB65]",
    "total protein half-life in vivo": "3.38 h"
  },
  {
    "SEQUENCE_STRING": "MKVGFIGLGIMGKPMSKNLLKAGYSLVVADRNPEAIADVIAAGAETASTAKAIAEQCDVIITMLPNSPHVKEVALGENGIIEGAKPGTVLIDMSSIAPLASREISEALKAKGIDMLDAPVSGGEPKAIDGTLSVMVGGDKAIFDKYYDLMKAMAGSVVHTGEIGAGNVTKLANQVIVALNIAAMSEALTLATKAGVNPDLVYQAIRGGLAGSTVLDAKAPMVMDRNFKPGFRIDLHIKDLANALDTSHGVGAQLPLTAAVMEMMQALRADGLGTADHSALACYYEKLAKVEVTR [P0ABQ2]",
    "total protein half-life in vivo": "2.9 h"
  }
]

List total protein half-life in vivo for every entry below, keeping the order given.
1. MKKLVLSLSLVLAFSSATAAFAAIPQNIRIGTDPTYAPFESKNSQGELVGFDIDLAKELCKRINTQCTFVENPLDALIPSLKAKKIDAIMSSLSITEKRQQEIAFTDKLYAADSRLVVAKNSDIQPTVESLKGKRVGVLQGTTQETFGNEHWAPKGIEIVSYQGQDNIYSDLTAGRIDAAFQDEVAASEGFLKQPVGKDYKFGGPSVKDEKLFGVGTGMGLRKEDNELREALNKAFAEMRADGTYEKLAKKYFDFDVYGG [P0AEU0]
2. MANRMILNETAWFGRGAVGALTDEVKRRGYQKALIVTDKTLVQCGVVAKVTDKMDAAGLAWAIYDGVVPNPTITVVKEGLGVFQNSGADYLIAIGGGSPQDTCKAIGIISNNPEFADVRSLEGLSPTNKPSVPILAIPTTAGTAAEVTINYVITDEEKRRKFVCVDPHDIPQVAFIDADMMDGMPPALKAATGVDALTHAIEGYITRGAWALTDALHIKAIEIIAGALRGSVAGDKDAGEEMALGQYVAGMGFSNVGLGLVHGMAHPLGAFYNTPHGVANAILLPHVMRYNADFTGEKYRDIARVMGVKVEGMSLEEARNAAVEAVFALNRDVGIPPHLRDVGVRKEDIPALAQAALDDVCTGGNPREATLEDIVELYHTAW [P0A9S1]
3. MNKTITALAIMMASFAANASVLPETPVPFKSGTGAIDNDTVYIGLGSAGTAWYKLDTQAKDKKWTALAAFPGGPRDQATSAFIDGNLYVFGGIGKNSEGLTQVFNDVHKYNPKTNSWVKLMSHAPMGMAGHVTFVHNGKAYVTGGVNQNIFNGYFEDLNEAGKDSTAIDKINAHYFDKKAEDYFFNKFLLSFDPSTQQWSYAGESPWYGTAGAAVVNKGDKTWLINGEAKPGLRTDAVFELDFTGNNLKWNKLAPVSSPDGVAGGFAGISNDSLIFAGGAGFKGSRENYQNGKNYAHEGLKKSYSTDIHLWHNGKWDKSGELSQGRAYGVSLPWNNSLLIIGGETAGGKAVTDSVLITVKDNKVTVQN
4. MLKKFRGMFSNDLSIDLGTANTLIYVKGQGIVLNEPSVVAIRQDRAGSPKSVAAVGHDAKQMLGRTPGNIAAIRPMKDGVIADFFVTEKMLQHFIKQVHSNSFMRPSPRVLVCVPVGATQVERRAIRESAQGAGAREVFLIEEPMAAAIGAGLPVSEATGSMVVDIGGGTTEVAVISLNGVVYSSSVRIGGDRFDEAIINYVRRNYGSLIGEATAERIKHEIGSAYPGDEVREIEVRGRNLAEGVPRGFTLNSNEILEALQEPLTGIVSAVMVALEQCPPELASDISERGMVLTGGGALLRNLDRLLMEETGIPVVVAEDPLTCVARGGGKALEMIDMHGGDLFSEE [P0A9X4]
5. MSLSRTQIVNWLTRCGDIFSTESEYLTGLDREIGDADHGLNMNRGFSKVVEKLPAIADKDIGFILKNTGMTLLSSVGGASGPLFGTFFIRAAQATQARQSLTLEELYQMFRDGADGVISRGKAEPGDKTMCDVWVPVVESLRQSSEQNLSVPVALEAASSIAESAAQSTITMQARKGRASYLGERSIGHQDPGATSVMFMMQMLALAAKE
6. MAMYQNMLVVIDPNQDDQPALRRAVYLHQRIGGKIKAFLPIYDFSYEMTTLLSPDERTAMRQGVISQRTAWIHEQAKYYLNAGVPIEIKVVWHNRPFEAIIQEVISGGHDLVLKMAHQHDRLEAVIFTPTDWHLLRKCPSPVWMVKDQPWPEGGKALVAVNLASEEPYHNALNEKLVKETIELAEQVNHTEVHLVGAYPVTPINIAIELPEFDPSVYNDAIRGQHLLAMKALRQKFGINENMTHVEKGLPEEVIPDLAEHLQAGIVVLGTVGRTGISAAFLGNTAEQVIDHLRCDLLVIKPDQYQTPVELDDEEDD [P0AAC0]
7. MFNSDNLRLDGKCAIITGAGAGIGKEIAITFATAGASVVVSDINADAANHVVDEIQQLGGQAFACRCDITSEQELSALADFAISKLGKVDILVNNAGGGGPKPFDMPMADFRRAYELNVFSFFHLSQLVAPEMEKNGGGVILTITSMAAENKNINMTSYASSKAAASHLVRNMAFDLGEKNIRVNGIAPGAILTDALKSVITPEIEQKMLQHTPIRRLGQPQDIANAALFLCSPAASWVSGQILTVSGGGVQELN [P0AET8]

1. 3.08 h
2. 3.02 h
3. 3.12 h
4. 3.04 h
5. 2.93 h
6. 2.97 h
7. 3.53 h
